Molecular target: Serine/threonine-protein kinase D3 (Homo sapiens, UniProt O94806)
Sequence (O94806 whole entry): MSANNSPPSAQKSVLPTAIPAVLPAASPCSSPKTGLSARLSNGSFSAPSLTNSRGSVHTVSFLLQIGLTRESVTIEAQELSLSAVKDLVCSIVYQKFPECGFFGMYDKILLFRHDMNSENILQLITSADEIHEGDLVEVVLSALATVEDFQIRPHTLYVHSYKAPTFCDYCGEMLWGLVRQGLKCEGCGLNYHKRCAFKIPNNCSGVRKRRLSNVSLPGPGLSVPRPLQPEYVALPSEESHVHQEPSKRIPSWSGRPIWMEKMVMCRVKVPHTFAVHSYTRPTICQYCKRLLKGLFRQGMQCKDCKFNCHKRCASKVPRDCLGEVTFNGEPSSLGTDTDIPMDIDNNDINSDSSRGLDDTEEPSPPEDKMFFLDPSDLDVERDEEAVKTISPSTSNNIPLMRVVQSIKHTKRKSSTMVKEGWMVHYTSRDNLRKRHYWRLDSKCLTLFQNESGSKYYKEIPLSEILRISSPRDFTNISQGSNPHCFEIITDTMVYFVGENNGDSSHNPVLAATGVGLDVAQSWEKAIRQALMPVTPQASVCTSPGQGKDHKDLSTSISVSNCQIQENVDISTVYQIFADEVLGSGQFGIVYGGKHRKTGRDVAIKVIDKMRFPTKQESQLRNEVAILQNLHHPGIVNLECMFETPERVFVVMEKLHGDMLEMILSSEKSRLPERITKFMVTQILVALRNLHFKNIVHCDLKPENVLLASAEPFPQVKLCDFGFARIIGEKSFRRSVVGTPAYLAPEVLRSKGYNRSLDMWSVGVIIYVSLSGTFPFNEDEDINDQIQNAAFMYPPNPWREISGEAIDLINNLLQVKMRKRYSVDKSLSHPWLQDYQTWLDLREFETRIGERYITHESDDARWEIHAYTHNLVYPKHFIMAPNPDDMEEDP
Test: Inhibition of recombinant FLAG-tagged PKD3 (unknown origin) expressed in HEK293T cells using Syntide-2 as substrate measured after 15 mins by ADP-Glo assay
Could you please report measured IC50 for the items listed next?
Record the value in nM, omitting the unit from your answer.

Reported IC50 of `CC(C)(C)n1nc(-c2c[nH]c3ccccc23)c2c(N)ncnc21` : 108

Reported IC50 of `CC(C)(C)n1nc(Cc2cccc3ccccc23)c2c(N)ncnc21` : 616

Sourced from ChEMBL document CHEMBL4765437
